Reference for the values: PubChem BioAssay (NCATS)

test: qHTS of pediatric cancer cell lines to identify multiple opportunities for drug repurposing: Primary screen for OHS-50 cells (AID 1347103); settings: OHS-50 osteosarcoma viability, CellTiter-Glo luminescence, 48 h; series mostly up to 57.3 µM; note: nearly all actives have a fitted effect of over 40% in size
Records with an inconclusive call do not appear. The source made the active and inactive calls. Calls come from the whole dose curve; as a rule, active = well fitted cell-killing curve with a large enough effect; inconclusive = small, poorly fitted or top-dose-only effect; inactive = no such curve, though single readings can be large or run the other way.
Allowed answers: Yes for active, No for inactive

# example entries with known answers
# COMPOUND, CLASSIFICATION
rows = [
    ("CCOC(=O)Oc1ccc(CCNC(=O)[C@H](CCSC)NC(C)=O)cc1OC(=O)OCC", "No"),
    ("C[C@@H](O[C@H]1OCCN(Cc2n[nH]c(=O)[nH]2)[C@H]1c1ccc(F)cc1)c1cc(C(F)(F)F)cc(C(F)(F)F)c1", "Yes"),
    ("O=C(COCCOCCOCC(=O)Nc1c(I)cc(I)c(C(=O)O)c1I)Nc1c(I)cc(I)c(C(=O)O)c1I", "No"),
]

Request: Hey, what did the test say about `c1ccc2occc2c1` ?
Response: No

Request: Hey, what did the test say about `CCCc1c2oc(C(=O)O)cc(=O)c2cc2c(=O)cc(C(=O)O)n(CC)c12` ?
Response: No

Request: Hey, what did the test say about CCCCC(CC)CNC(=O)CC(C)OC(=O)CCC(=O)O (stereo not drawn) ?
Response: No

Request: Hey, what did the test say about `Brc1ccccc1-c1ccccc1` ?
Response: No

Request: Hey, what did the test say about `Cc1cc(C(C)(C)C)c(O)c(C(C)(C)C)c1` ?
Response: No

Request: Hey, what did the test say about `COc1ccc2c(c1)CCCC2=O` ?
Response: No

Request: Hey, what did the test say about CC(C)(C)C1CCC(CC2=C(O)c3ccccc3C(=O)C2=O)CC1 (stereo not drawn) ?
Response: Yes

Request: Hey, what did the test say about `CCCCCCCCCCCCCCCCCCN(C)C` ?
Response: No

Request: Hey, what did the test say about `CCN(CC)CCOc1ccc(/C(=C(\Cl)c2ccccc2)c2ccccc2)cc1` ?
Response: Yes

Request: Hey, what did the test say about `C#Cc1ccc(-c2ccccc2F)cc1` ?
Response: No

Request: Hey, what did the test say about `O=C(O)c1cn(C2CC2)c2cc(Cl)c(F)cc2c1=O` ?
Response: No

Request: Hey, what did the test say about `COc1c(N2C[C@@H]3CCCN[C@@H]3C2)c(F)cc2c(=O)c(C(=O)O)cn(C3CC3)c12` ?
Response: No

Request: Hey, what did the test say about `O=[N+]([O-])c1nccn1CO[C@@H](CO)[C@H](O)CO` ?
Response: No

Request: Hey, what did the test say about `O=C(O)Cc1ccc(OCCNC[C@H](O)c2ccccc2)cc1` ?
Response: No

* * *

Assay: qHTS of pediatric cancer cell lines to identify multiple opportunities for drug repurposing: Primary screen for DAOY cells (AID 1347090); note: nearly all actives have a fitted effect of over 55% in size
Details: DAOY medulloblastoma viability, CellTiter-Glo luminescence, 48 h; series mostly up to 46 µM
Experimental: Drug repurposing or repositioning has been offered as a strategy for drug development in oncology programs. […] [1] Shen, M et al. Quantitative high-throughput phenotypic screening of pediatric cancer cell lines identifies multiple opportunities for drug repurposing. […] Cells were assayed in growth media at a density of 500-1,000 cells/well. […] After a 15 min incubation at room temperature, samples were analyzed for luminescence intensity using a ViewLux High-throughput CCD imager equipped with clear filters.
Inconclusive results are not listed. The source made the active and inactive calls. Calls follow the shape of the dose curve; as a rule, active = well fitted cell-killing curve with a large enough effect; inconclusive = small, poorly fitted or top-dose-only effect; inactive = flat fitted curve, though single readings scatter.
Allowed answers: 1 for active, 0 for inactive

# example entries with known answers
# COMPOUND, CLASSIFICATION
measured = [
    ("O=C(Nc1ccc(Cl)cc1)Nc1ccc(Cl)c(C(F)(F)F)c1", 1),
    ("C[C@@]12CCC[C@H]1[C@@H]1CC[C@H]3C[C@@H](O)CC[C@]3(C)[C@H]1CC2", 0),
    ("CCCC(=O)c1cc(O)c(O)cc1O", 0),
]

Kindly review the next compound as well.
Request: Hey, what did the test say about `CCNC(=O)NCCCOc1cccc(CN2CCCCC2)c1` ?
Response: 0

* * *

test system: astro; test: Drug repurposing screens with cells derived from glioblastoma tumor samples (AID 1345199); conditions: viability, ATP luminescence, 48 h; series mostly up to 45.9 µM; note: nearly all actives have a fitted effect of over 40% in size
Records with an inconclusive call do not appear. Activity calls are given as the source filed them. Calls come from the whole dose curve; as a rule, active = well fitted inhibition curve with a large enough effect; inconclusive = small, poorly fitted or top-dose-only effect; inactive = flat fitted curve, though single readings scatter.
Allowed answers: label 1 for active, label 0 for inactive

# example entries with known answers
# COMPOUND, CLASSIFICATION
measured = [
    ("CCOC(=O)Cn1cccc1-c1nc(-c2ccc(OC)cc2)c(-c2ccc(OC)cc2)s1", "label 0"),
    ("c1ccc(C(O[C@H]2CCCN(CCc3ccc4c(c3)OCO4)C2)c2ccccc2)cc1", "label 0"),
    ("O=C(Nc1ccc(Cl)cc1)Nc1ccc(Cl)c(C(F)(F)F)c1", "label 1"),
    ("CN(CC1(C)CCCO1)S(=O)(=O)c1ccc(Cl)c(S(N)(=O)=O)c1 (stereo unspecified)", "label 0"),
    ("O=C(c1ccccc1)c1ccccc1", "label 0"),
    ("CC(=O)OC/C=C(C)/C=C/C=C(C)/C=C/C1=C(C)CCCC1(C)C", "label 0"),
]

Request: Hey, what did the test say about `CCNC(=O)NCCCOc1cccc(CN2CCCCC2)c1` ?
Response: label 0

Request: Hey, what did the test say about `Nc1cccc2c(N)cccc12` ?
Response: label 0

Request: Hey, what did the test say about `O=C1CC[C@H](C(=O)N2CCCCC2)N1` ?
Response: label 0

Request: Hey, what did the test say about `COc1cc(NS(=O)(=O)c2ccc(N)cc2)nc(C)n1` ?
Response: label 0

Request: Hey, what did the test say about CC(=O)OCC(=O)[C@@]1(O)CCC2C3CCC4=CC(=O)CC[C@]4(C)C3[C@@H](O)C[C@@]21C (stereo partly specified) ?
Response: label 0

* * *

assay: qHTS of pediatric cancer cell lines to identify multiple opportunities for drug repurposing: Primary screen for LAN-5 cells (AID 1347100); settings: LAN-5 neuroblastoma viability, CellTiter-Glo luminescence, 48 h; series mostly up to 46 µM;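 note: plate controls were DMSO neutral control for no effect and bortezomib positive control for full effect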
Results filed as inconclusive are left out. Activity calls are given as the source filed them. Calls follow the shape of the dose curve; as a rule, active = well fitted cell-killing curve with a large enough effect; inconclusive = small, poorly fitted or top-dose-only effect; inactive = no such curve, though single readings can be large or run the other way.
Allowed answers: active, inactive

# COMPOUND, CLASSIFICATION
records = [
    ("Nc1nnnn1-c1ccccc1", "inactive"),
    ("CC(C)OC(=O)c1cc2c(OCC(O)CNC(C)(C)C)cccc2[nH]1 (configuration not stated)", "inactive"),
    ("CCCCCCCC(=O)[O-].CCCCCCCC(=O)[O-].[Zn+2]", "inactive"),
    ("COc1ccc(/C(C)=C/C(=O)O)c(OC)c1", "inactive"),
    ("CC(=O)OCC(=O)Nc1cc(C#N)cc(NC(=O)COC(C)=O)c1Cl", "inactive"),
    ("CCCCCCn1c(=O)c2c(ncn2C)n(C)c1=O", "inactive"),
]

Request: Hey, what did the test say about `O=C(NO)c1ccccc1` ?
Response: inactive

Request: Hey, what did the test say about CC(=O)OCC(=O)[C@@]1(O)CCC2C3CCC4=CC(=O)CC[C@]4(C)C3[C@@H](O)C[C@@]21C (some centres not stated) ?
Response: inactive

Request: Hey, what did the test say about `O=C(Oc1ccccc1)c1cccc(C(=O)Oc2ccccc2)c1` ?
Response: inactive

Request: Hey, what did the test say about `O=C1CCCc2c(O)cccc21` ?
Response: inactive

* * *

test system: PC15; experiment: qHTS profiling for inhibitors of Plasmodium falciparum proliferation (AID 504749); note: nearly all actives have a fitted effect of over 60% in size; details: P. falciparum in erythrocytes, SYBR Green DNA, 72 h; series mostly up to 28.7 µM
Inconclusive results are not listed. Activity calls are given as the source filed them. Calls come from the whole dose curve; as a rule, active = well fitted inhibition curve with a large enough effect; inconclusive = small, poorly fitted or top-dose-only effect; inactive = flat fitted curve, though single readings scatter.
Allowed answers: active, inactive

# example entries with known answers
# COMPOUND, CLASSIFICATION
rows = [
    ("CCCCCCCCCCCCCCCC[n+]1ccccc1", "active"),
    ("CC(NCCC(c1ccccc1)c1ccccc1)c1ccccc1 (stereo not given)", "active"),
    ("CCCCCCCCCCCCCCCC[N+](C)(C)Cc1ccccc1", "active"),
    ("O=[N+]([O-])c1ccc(O)c2ncccc12", "inactive"),
]

Request: Hey, what did the test say about `O=S(=O)(O)c1ccc2nc(-c3ccccc3)[nH]c2c1` ?
Response: inactive

* * *

experiment: qHTS of pediatric cancer cell lines to identify multiple opportunities for drug repurposing: Primary screen for SK-N-SH cells (AID 1347098); conditions: SK-N-SH viability, CellTiter-Glo luminescence, 48 h; series mostly up to 57 µM; note: nearly all actives have a fitted effect of over 65% in size
Results filed as inconclusive are left out. Active and inactive are the calls of the source. Calls follow the shape of the dose curve; as a rule, active = well fitted cell-killing curve with a large enough effect; inconclusive = small, poorly fitted or top-dose-only effect; inactive = no such curve, though single readings can be large or run the other way.
Allowed answers: Yes (active), No (inactive)

# example entries with known answers
# MOLECULE, CLASSIFICATION
data = [
    ("O=C1c2ccccc2CCc2ccccc21", "No"),
    ("O=C(COCCOCCOCC(=O)Nc1c(I)cc(I)c(C(=O)O)c1I)Nc1c(I)cc(I)c(C(=O)O)c1I", "No"),
    ("CC1CC(=O)NN=C1c1ccc(NCC(C)(C)NCC(O)COc2cc(Cl)ccc2C#N)cc1 (stereo not drawn)", "No"),
    ("CCOc1c(N2CCOCC2)cnn(C)c1=O", "No"),
    ("CCc1cc(S(=O)(=O)O)c2cc(C(C)C)cccc1-2", "No"),
    ("O=C(O)/C=C(\\CC(=O)O)C(=O)O", "No"),
]

Request: Hey, what did the test say about `CC(=O)Nc1ccc(S(=O)(=O)Nc2cc(C)on2)cc1` ?
Response: No

Request: Hey, what did the test say about `Cc1ccc(/C=N/n2c(-c3ccccc3)csc2=S)cc1` ?
Response: No

Request: Hey, what did the test say about `Cc1cc(OCCOCC[N+](C)(C)Cc2ccccc2)ccc1C(C)(C)CC(C)(C)C` ?
Response: Yes

Request: Hey, what did the test say about `CCCC(=O)O[C@]1(C(=O)CC)CC[C@H]2[C@@H]3CCC4=CC(=O)CC[C@]4(C)[C@H]3[C@@H](O)C[C@@]21C` ?
Response: No
